Assay: A CellTox Green Cytotoxicity Assay to monitor cytotoxicity in HepG2 cells - 24 hour (AID 1224878); further: nearly all actives have a fitted effect of over 45% in size
Conditions: CellTox Green fluorescence; series mostly up to 76.8 µM
Description: National Center for Advancing Translational Sciences [NCATS] NIH Chemical Genomics Center [NCGC] U.S. Environmental Protection Agency [EPA] National Institutes of Environmental Health Sciences [NIEHS] National Toxicology Program [NTP] Cell-based models are critical for drug discovery. […] Viable cells produce no appreciable increases in fluorescence. Therefore, the fluorescence signal produced by the binding interaction with dead cell DNA is proportional to cytotoxicity. […]
Results filed as inconclusive are left out. Active and inactive are the calls of the source. The call rests on the fitted dose curve; in most records, active means well fitted activation curve with a large enough effect in the repeat runs; inconclusive means weak or mixed curves; inactive means flat fitted curve, though single readings scatter.
Labels: y = active, n = inactive

{"molecule": "NC(=O)c1ccncc1", "class label": "n"}
{"molecule": "CCOC(=O)[C@H](CCc1ccccc1)N[C@@H](C)C(=O)N(CC(=O)O)C1Cc2ccccc2C1", "class label": "n"}
{"molecule": "CN1CCCC(n2nc(Cc3ccc(Cl)cc3)c3ccccc3c2=O)CC1 (stereo unspecified)", "class label": "y"}
{"molecule": "CC(=O)Nc1ccc(C)cc1C", "class label": "n"}
{"molecule": "COC(=O)CCS", "class label": "n"}
{"molecule": "C[C@@H](O)[C@H]1C(=O)N2C(C(=O)O)=C([C@H]3CCCO3)S[C@H]12", "class label": "n"}
{"molecule": "CCCCOc1ccc(OCCCN2CCOCC2)cc1", "class label": "n"}
{"molecule": "CO[C@]1(NC(=O)CSC(F)F)C(=O)N2C(C(=O)O)=C(CSc3nnnn3CCO)CO[C@H]21", "class label": "n"}
{"molecule": "CCCCCCCCN", "class label": "n"}
{"molecule": "COc1ccccc1NC(=O)c1cc2ccccc2cc1O", "class label": "n"}
{"molecule": "C[C@H]1c2cccc(O)c2C(O)=C2C(=O)[C@]3(O)C(O)=C(C(N)=O)C(=O)[C@@H](N(C)C)[C@@H]3[C@@H](O)[C@@H]21", "class label": "n"}
